Provenance of the data: PubChem BioAssay AID1963827

Recorded pIC50 for the following compounds
Tested on: 994946-033-R-J1-PDC complex spheroid viability;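 further: spheroids exposed to drugs for 7 days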
PROCEDURE_SUMMARY: Anticancer human tumor 994946-033-R-J1-PDC patient-derived melanoma cell line growth inhibition [POLQ]
CONDITIONS_USED: curve of first compound; second compound 0.316 µM
pIC50: −log10 of the molar value.
MEASUREMENT_NAME: pIC50

| COMPOUND | RESULT |
| --- | --- |
| CCc1c2c(nc3ccc(O)cc13)-c1cc3c(c(=O)n1C2)COC(=O)[C@]3(O)CC + COC1C(OC(N)=O)C(O)C(Oc2ccc3c(O)c(NC(=O)c4ccc(O)c(CC=C(C)C)c4)c(=O)oc3c2C)OC1(C)C | > 8.50 |
| Nc1ccn(C2OC(CO)C(O)C2(F)F)c(=O)n1 (stereo not drawn) + Cc1cccc(N(C)C(=O)C2C(O)CCN2c2nc(C)cc(C(F)(F)F)c2C#N)c1 | > 7.50 |
| CC1COCCN1c1cc(-c2ccnn2C)c2ccnc(-c3ccn[nH]3)c2n1 (stereo not drawn) + Cc1cccc(N(C)C(=O)C2C(O)CCN2c2nc(C)cc(C(F)(F)F)c2C#N)c1 | 7.29 |
